Numbers sourced from patent US12473262B2.

- Test name: In vivo PK study, intravenous and oral administration in male mice
- Design: species or system mouse
- Condition: mouse, PO 8 mg/Kg, plasma
Property measured: AUC(0-inf) (ng·h/mL)
One number for each entry, in ng·h/mL.

- O=c1c2cccc3cccc(c32)c2nc3cc(Cl)ccc3n12: 1020

Lab note: next molecule to report on.
Q) Using the record for Clc1ccc2[nH]c(-c3cccc4ccccc34)cc2c1 , report its AUC(0-inf).
A) 1390

###

- Subject of test: aryl hydrocarbon receptor (AhR) (Mus musculus (Mouse))
- Test name: AhR ligand screening: AhRE-luciferase reporter in transfected Hepa1 cells
- Assay type: cell-based
- Condition: fold change of luciferase expression at 100 nM test compound relative to vehicle (0.1% DMSO)
Property measured: Fold @ 100 nM (fold)
Answers are plain numbers, in fold.

// input: 7 compounds below; output: Fold @ 100 nM for each
1. COC(=O)c1ccc2c(c1)nc(-c1cccc3ccccc13)n2C(=O)c1ccc(Cl)cc1Cl
2. CN1CCN(C(=O)c2ccc3nc(-c4cccc5ccccc45)n(Cc4ccc(F)c(F)c4)c3c2)CC1
3. O=C(c1ccccc1)n1c(-c2cccc3c2CCCC3)nc2ccc(Cl)cc21
4. O=C(c1ccc2c(c1)nc(-c1cccc3ccccc13)n2Cc1ccc(F)c(F)c1)N1CCOCC1
5. CC(C)(C)c1cccc(-c2nc3cc(Cl)ccc3n2C(=O)c2ccccc2)c1
6. O=c1c2cccc3cccc(c32)c2nc3ccccc3n12
7. O=C(c1ccc2c(c1)nc(-c1cccc3ccccc13)n2S(=O)(=O)c1ccc(Cl)cc1)N1CCCCC1

A)
1. 2
2. 1
3. 1
4. 1
5. 1
6. 11.5
7. 1

Q) Using the record for N#Cc1ccc(C(=O)n2c(-c3cccc4ccccc34)nc3ccc(Cl)cc32)cc1 , report its Fold @ 100 nM.
A) 28

###

- Subject of test: aryl hydrocarbon receptor (AhR) (Mus musculus (Mouse), UniProt P30561)
- Sequence (P30561 10-805): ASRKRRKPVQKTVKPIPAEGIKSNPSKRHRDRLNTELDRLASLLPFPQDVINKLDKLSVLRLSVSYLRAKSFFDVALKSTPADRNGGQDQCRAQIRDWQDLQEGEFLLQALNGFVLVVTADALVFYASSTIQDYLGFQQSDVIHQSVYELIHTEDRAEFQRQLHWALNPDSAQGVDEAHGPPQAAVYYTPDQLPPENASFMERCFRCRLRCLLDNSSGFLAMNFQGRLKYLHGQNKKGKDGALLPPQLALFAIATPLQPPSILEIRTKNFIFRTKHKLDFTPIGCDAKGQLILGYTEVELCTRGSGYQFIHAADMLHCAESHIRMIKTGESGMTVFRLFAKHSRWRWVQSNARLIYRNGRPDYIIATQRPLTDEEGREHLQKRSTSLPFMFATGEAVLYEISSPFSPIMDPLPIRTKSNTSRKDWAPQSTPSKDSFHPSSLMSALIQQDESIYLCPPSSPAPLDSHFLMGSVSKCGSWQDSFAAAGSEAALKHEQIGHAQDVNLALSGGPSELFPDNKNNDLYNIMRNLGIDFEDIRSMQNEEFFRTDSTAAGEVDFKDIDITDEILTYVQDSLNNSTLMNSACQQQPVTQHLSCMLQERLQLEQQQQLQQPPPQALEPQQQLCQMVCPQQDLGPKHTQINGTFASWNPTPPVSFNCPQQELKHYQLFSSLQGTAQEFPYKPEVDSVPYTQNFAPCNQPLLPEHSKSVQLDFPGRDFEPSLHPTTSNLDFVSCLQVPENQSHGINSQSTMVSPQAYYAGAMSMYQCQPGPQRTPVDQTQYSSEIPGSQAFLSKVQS
- Sequence (P53762 whole entry partner): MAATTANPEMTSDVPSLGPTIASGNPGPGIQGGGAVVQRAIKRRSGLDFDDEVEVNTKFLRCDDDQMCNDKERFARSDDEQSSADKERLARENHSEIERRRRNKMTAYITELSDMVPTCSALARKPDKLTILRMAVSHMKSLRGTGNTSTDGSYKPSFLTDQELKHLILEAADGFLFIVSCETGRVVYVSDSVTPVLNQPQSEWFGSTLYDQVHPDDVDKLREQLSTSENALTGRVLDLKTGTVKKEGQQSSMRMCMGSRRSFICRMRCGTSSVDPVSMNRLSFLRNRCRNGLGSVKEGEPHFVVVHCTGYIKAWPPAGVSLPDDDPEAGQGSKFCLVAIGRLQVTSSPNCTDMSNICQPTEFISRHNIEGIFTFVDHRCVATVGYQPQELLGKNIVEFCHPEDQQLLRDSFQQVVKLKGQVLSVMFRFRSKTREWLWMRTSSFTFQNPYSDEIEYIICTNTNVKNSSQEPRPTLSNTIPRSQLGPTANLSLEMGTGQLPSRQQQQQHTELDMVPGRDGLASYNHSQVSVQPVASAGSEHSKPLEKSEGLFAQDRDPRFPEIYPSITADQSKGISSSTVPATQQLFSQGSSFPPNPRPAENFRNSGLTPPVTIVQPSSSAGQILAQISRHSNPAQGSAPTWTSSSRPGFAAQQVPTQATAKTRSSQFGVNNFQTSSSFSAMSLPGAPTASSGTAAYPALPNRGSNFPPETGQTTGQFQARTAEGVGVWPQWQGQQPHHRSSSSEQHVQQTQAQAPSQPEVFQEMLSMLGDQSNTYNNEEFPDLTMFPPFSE
- Test name: AhR ligand screening: AhRE-luciferase reporter in transfected Hepa1 cells
- Assay type: cell-based
- Condition: luciferase expression at 100 nM test compound relative to 100 nM benchmark compound 11-cl-BBQ
For each of the compounds below, state its Fold relative to benchmark @ 100 nM.
Numbers only, in fold.

Consider the following illustrative entries.
- O=C(c1ccccc1)n1c(-c2ccc(F)cc2)nc2cc(Cl)ccc21: 0.03
- N#Cc1ccc2c(c1)nc(-c1cccc3ccccc13)n2C(=O)c1ccccc1: 0.08
- O=C(c1ccc2nc(-c3cccc4ccccc34)n(Cc3ccc(F)c(F)c3)c2c1)N1CCOCC1: 0.03

Lab note: next compound to report on.
Q) Using the record for O=C(c1ccc2c(c1)nc(-c1cccc3ccccc13)n2Cc1ccc(F)cc1)N1CCOCC1 , report its Fold relative to benchmark @ 100 nM.
A) 0.07

###

- Test name: Liver microsomal stability, mouse
- Condition: mouse liver microsomes, 30 min, 1 μM compound, 0.5 mg/ml protein
Property measured: Rem @ MLM × 30 min (%)
Answers are plain numbers, in %.

* O=C(C1CC1)n1c(-c2cccc3ccccc23)cc2cc(Cl)ccc21 [Compound 972] | 26.7
* Clc1ccc2[nH]c(-c3cccc4ccccc34)cc2c1 [Compound 893, 5-chloro-2-(naphthalen-1-yl)-1H-indole] | 16.7

// input: 3 molecules below; output: Rem @ MLM × 30 min for each
1. O=C(c1ccc(SC(F)(F)F)cc1)c1c[nH]c2ccc(Cl)cc12 [Compound 884]
2. O=C(c1cccc(Cl)c1Cl)c1c[nH]c2ccc(Cl)cc12 [Compound 889]
3. O=S(=O)(c1ccc2ccccc2c1)n1c(-c2cccc3ccccc23)nc2cc(Cl)ccc21 [Compound 785]

A)
[22.2, 43.5, 49.3]

###

For each of the compounds below, state its Fold @ 1 nM.
- Subject of test: aryl hydrocarbon receptor (AhR) (Mus musculus (Mouse))
- Test name: AhR ligand screening: AhRE-luciferase reporter in transfected Hepa1 cells
- Format: cell-based
- Condition: fold change of luciferase expression at 1 nM test compound relative to vehicle (0.1% DMSO)
Answers are plain numbers, in fold.

Consider the following illustrative entries.
• COc1ccc(C(=O)n2c(-c3cccc4ccccc34)nc3ccc(Cl)cc32)cc1 [Compound 536] = 1
• COC(=O)c1ccc2c(c1)nc(-c1cccc3ccccc13)n2S(=O)(=O)c1ccc(Cl)cc1 [Compound 1385] = 1
• COC(=O)c1ccc2nc(-c3cccc4ccccc34)n(S(=O)(=O)c3ccc(C#N)cc3)c2c1 [Compound 1362] = 5
• O=C(c1ccc2nc(-c3cccc4ccccc34)n(Cc3ccc(SC(F)(F)F)cc3)c2c1)N1CCCCC1 [Compound 1412] = 1
• O=C(c1ccc(Cl)cc1Cl)c1c[nH]c2ccc(Cl)cc12 [Compound 890] = 1
• O=C(c1ccc(OC(F)(F)F)cc1)n1c(-c2cccc3ccccc23)nc2cc(Cl)ccc21 [Compound 696] = 1
• COC(=O)c1ccc2nc(-c3cccc4ccccc34)n(Cc3ccc(Cl)cc3)c2c1 [Compound 1407] = 1
• COC(=O)c1ccc2c(c1)nc(-c1cccc3ccccc13)n2C(=O)c1ccc(OC(F)(F)F)cc1 [Compound 1342] = 1

// input: 6 compounds below; output: Fold @ 1 nM for each
1. O=C(c1ccc2ccccc2c1)c1c[nH]c2ccc(Cl)cc12 [Compound 885]
2. O=C(c1ccc(F)c(F)c1)n1c(-c2cccc3ccccc23)nc2cc(F)ccc21 [Compound 630]
3. O=C(c1ccc(F)c(F)c1)n1c(-c2csc3ccccc23)nc2ccc(Cl)cc21 [Compound 862]
4. c1ccc2c(c1)Cn1c3ccccc3c3ccnc-2c31 [Compound 526]
5. O=C(C1CCCCC1)n1c(-c2cc3ccccc3o2)nc2cc(Cl)ccc21 [Compound 859]
6. Clc1ccc2[nH]c(-c3cccc4ccccc34)cc2c1 [Compound 893, 5-chloro-2-(naphthalen-1-yl)-1H-indole]

A)
1. 1
2. 1
3. 1
4. 2.7
5. 1
6. 1

###

For each of the molecules below, state its microsomal CLint at 1 μM.
- Test name: in vitro
- Condition: mouse, microsomes, pH 7.4
Give bare numbers, in µL/min/mg.

- O=C(c1ccc2ccccc2c1)c1c[nH]c2ccc(Cl)cc12 [Compound 885]: 50.4

Lab note: next molecule to report on.
Q) Using the record for O=C(c1cccc2ccccc12)c1c[nH]c2cc(Cl)c(Cl)cc12 [Compound 434] , report its microsomal CLint at 1 μM.
A) 129

###

- Subject of test: UniProt:P30561
- Test name: AhR ligand screening: AhRE-luciferase reporter in transfected Hepa1 cells
- Assay type: cell-based
- Condition: fold change of luciferase expression at 100 nM test compound relative to vehicle (0.1% DMSO)
Property measured: Fold @ 100 nM (fold)
Numbers only, in fold.

Consider the following illustrative entries.
- COC(=O)c1ccc2nc(-c3cccc4ccccc34)n(S(=O)(=O)c3ccc(Cl)cc3)c2c1 [Compound 1386]: 2
- O=C(c1ccc2nc(-c3cccc4ccccc34)n(S(=O)(=O)c3ccc4ccccc4c3)c2c1)N1CCCCC1 [Compound 1341]: 1
- Clc1ccc2c(c1)nc(-c1cccc3ccccc13)n2Cc1ccnc2ccccc12 [Compound 867]: 2
- O=C(c1ccc2c(c1)nc(-c1cccc3ccccc13)n2Cc1ccc(SC(F)(F)F)cc1)N1CCCCC1 [Compound 1411]: 1
- O=C(c1ccc2c(c1)nc(-c1cccc3ccccc13)n2Cc1cccc2ccccc12)N1CCOCC1 [Compound 1408]: 1
- O=C(c1ccc(F)cc1)n1c(-c2cccc3ccccc23)nc2ccc(Cl)cc21 [Compound 587]: 16
- COc1ccc(C(=O)n2c(-c3cc4ccccc4s3)nc3cc(Cl)ccc32)cc1 [Compound 590]: 3

Lab note: next compound to report on.
Q) Form entry - test system: UniProt:P30561; read-out: Fold @ 100 nM; compound: CN1CCN(C(=O)c2ccc3c(c2)nc(-c2cccc4ccccc24)n3Cc2ccc(F)c(F)c2)CC1 [Compound 1364]
A) 1

###

For each of the compounds below, state its Fold @ 100 nM.
- Subject of test: aryl hydrocarbon receptor (AhR) (Mus musculus (Mouse))
- Test name: AhR ligand screening: AhRE-luciferase reporter in transfected Hepa1 cells
- Format: cell-based
- Condition: fold change of luciferase expression at 100 nM test compound relative to vehicle (0.1% DMSO)
Give bare numbers, in fold.

Consider the following illustrative entries.
* O=C(c1cccc2ccccc12)c1c[nH]c2cc(Cl)c(Cl)cc12 | 1
* Cn1ncc2c(-c3nc4cc(Cl)ccc4n3C(=O)c3ccc(F)c(F)c3)cccc21 | 3

// input: 7 compounds below; output: Fold @ 100 nM for each
1. CN(C)c1ccc(C(=O)c2c[nH]c3ccc(Cl)cc23)cc1
2. COc1ccc(C(=O)n2c(-c3cc4ccccc4s3)nc3cc(F)ccc32)cc1
3. O=C(c1ccc2nc(-c3cccc4ccccc34)n(Cc3ccc(F)cc3)c2c1)N1CCOCC1
4. Cc1cccc(-c2nc3cc(Cl)ccc3n2C(=O)c2ccc(F)c(F)c2)c1Cl
5. O=C(c1ccc(F)cc1F)n1c(-c2cccc3ccccc23)nc2cc(Cl)ccc21 [Compound 695]
6. CN1CCN(C(=O)c2ccc3c(c2)nc(-c2cccc4ccccc24)n3S(=O)(=O)c2cccc(F)c2)CC1
7. O=C(c1ccc(F)c(F)c1)n1c(-c2ccccc2-c2ccccc2)nc2cc(Cl)ccc21

A)
1. 1
2. 2
3. 1
4. 1
5. 23
6. 1
7. 2

// input: 2 compounds below; output: Fold @ 100 nM for each
1. O=C(c1ccccc1)n1c(-c2cccc3ccccc23)nc2cc(Cl)ccc21
2. O=C(c1ccc2nc(-c3cccc4ccccc34)n(Cc3cccc4ccccc34)c2c1)N1CCOCC1

A)
[29, 1]

// input: 6 compounds below; output: Fold @ 100 nM for each
1. O=C(c1ccc(F)c(F)c1)n1c(-c2ccc(F)c(Cl)c2)nc2cc(Cl)ccc21
2. O=C(c1ccccc1)n1c(-c2cccc3ccccc23)nc2cc(Cl)c(Cl)cc21
3. O=C(c1ccc(F)c(F)c1)n1c(-c2ccc(F)c(Cl)c2)nc2ccc(Cl)cc21
4. O=C(c1ccccc1)c1c[nH]c2ccc(Cl)cc12
5. O=C(c1ccccc1)n1c(-c2cccc(C(F)(F)F)c2)nc2cc(Cl)ccc21
6. O=C(c1ccccc1)n1c(-c2ccc(F)cc2)nc2ccc(Cl)cc21

A)
3
32
1
1
2
1
